- Test system: U251 CNS
- Assay name: NCI-60 one-dose screen, 48 h
- Condition description: 10 µM unless noted
This is part of a sample that, as a whole, favours compounds with a hit. Of some 83,000 tested, about 20% had one in any assay. Activity calls are given as the source filed them. The calls were made as follows: active = growth percent below 10; inactive = the rest.
Could you please pick one outcome from this set? active, inactive

| Compound | Discrete label |
| --- | --- |
| O=c1c2ccccc2nc(COc2ccccc2)n1/N=C/C=C/c1ccccc1 | inactive |
| CCC(CC)n1c(=O)c(SC2=NC3C(NN2)N(CC)C(=O)N3CC)c(C(=O)O)c2ccccc21 (centres undefined) | inactive |
| COc1ccc2oc3c4[nH]c5ccccc5c4c4c(c3c2c1)C(=O)N(O)C4=O | inactive |

**Q:** How was `COc1cc2oc(-c3cccc(NC(=O)c4cc(NC(=O)[C@H](C)N)ccc4Cl)c3)cc(=O)c2c(OC)c1OC` classified in this test?
**A:** inactive

====

- Tested on: 786-0 renal
- Assay name: NCI-60 one-dose screen, 48 h
- Condition description: 10 µM unless noted
Compounds without any hit were thinned out: in the full panel of roughly 83,000, 20% have a hit. The source made the active and inactive calls. Rule for the calls: active = growth percent below 10; inactive = the rest.
Tick one outcome: active, inactive

| Mol smiles | Discrete label |
| --- | --- |
| COc1ccc(NC(=O)[C@H](C)N)cc1C(=O)Nc1cccc(-c2cc(=O)c3c(OC)c(OC)c(OC)cc3o2)c1 | inactive |
| O=c1c2ccccc2nc(COc2ccccc2)n1/N=C/C=C/c1ccccc1 | inactive |
| C#C[C@]1(O)CC[C@H]2[C@@H]3CC=C4c5sc(-c6ccc(OC)cc6)nc5CC[C@]4(C)[C@H]3CC[C@@]21C | inactive |
| COc1cc(-c2nc(SCc3ccc(C)cc3)[nH]c(=O)c2C#N)ccc1OCc1ccccc1 | inactive |
| COc1cc2c3c(n(CCCNC4CCCC4)c(=O)c2cc1OC)-c1cc2c(cc1C3=O)OCO2 | active |
| CNC(=O)c1cc(N2CCc3cc(NC(=O)Nc4ccc(Cl)c(Cl)c4)ccc32)ccn1 | inactive |

**Q:** Outcome? `Cn1cc(-c2nnc(N)nc2-c2cn(C)c3ccc(F)cc23)c2cc(F)ccc21`
**A:** inactive

**Q:** Fill in: this test's call for `Fc1ccc(-c2cc3nc(C(Cl)Cl)nc(-c4cccs4)n3n2)cc1` is ___
**A:** inactive

**Q:** Answer briefly: the call reported for `COc1ccc(S(=O)(=O)NCCCNc2nccc(-n3cnc4ccccc43)n2)cc1` in this assay.
**A:** inactive

====

- System: MCF7 breast
- Assay name: NCI-60 one-dose screen, 48 h
- Condition description: 10 µM unless noted
The panel holds about 83,000 compounds, 20% with a hit somewhere; the sample as a whole holds those more often. Active and inactive are the calls of the source. Rule for the calls: active = growth percent below 10; inactive = the rest.
Output constraint: value belongs to T (active), F (inactive)

Recorded results for 4 compounds are shown here.
| Compound | Discrete label |
| --- | --- |
| O=C1Nc2ccc(Cl)cc2/C1=C/c1ccc(OCc2ccc(F)cc2)cc1 | F |
| Oc1ccc(CSc2nnc(-c3ccncc3)n2-c2ccccc2)c2cccnc12 | T |
| N=c1c2cc(-c3ccccc3)oc2ncn1/N=C/c1ccccc1 | F |
| C#C[C@]1(O)CC[C@H]2[C@@H]3CC=C4c5sc(Nc6ccc(OC)nc6)nc5CC[C@]4(C)[C@H]3CC[C@@]21C | T |

Here's the next entry for you.
**Q:** So what was the verdict on `COc1ccc(-c2oc3cc(O)cc(O)c3c(=O)c2OC)cc1O` in this test?
**A:** F

====

- Test system: LOX IMVI melanoma
- Assay name: NCI-60 one-dose screen, 48 h
- Condition description: 10 µM unless noted
- Protocol: Growth inhibition of the LOX IMVI human tumor cell line is measured as a screen for anti-cancer activity. Cells are grown in 96 well plates and exposed to the test compound for 48 hours. Compounds are tested at a single concentration, which is 10^-5 M for most compounds. The reported endpoint is percent growth (GI% or GIPRCNT), where numbers from 0 - 100% represent growth inhibition, and numbers from -100% - 0 represent cell death. For example, a value of 40 represents 60% growth inhibition. […]
This is part of a sample that, as a whole, favours compounds with a hit. Of some 83,000 tested, about 20% had one in any assay. Calls of active or inactive are those of the source. The calls were made as follows: active = growth percent below 10; inactive = the rest.
// one of 1.0 = active, 0.0 = inactive, no free text

Known results for compounds:
| Compound | Discrete label |
| --- | --- |
| Brc1cccc(/C=N/Nc2nc(N/N=C/c3cccc(Br)c3)nc(N3CCOCC3)n2)c1 | 1.0 |
| COc1ccccc1N1CCN(C2=NN=C(c3cccc(Cl)c3)c3ccccc3C2)CC1 | 0.0 |
| N/C(=N\OC(=O)CSc1nc2ccccc2s1)c1ccc(Cl)cc1 | 0.0 |

**Q:** Outcome logged for CC1(C)CC[C@]2(C(=O)O)CC[C@]3(C)C(=CCC4[C@@]5(C)C[C@@H](O)[C@@H]6OC(c7ccccc7O)OC[C@@]6(C)C5CC[C@]43C)C2C1 (stereo not given in full) in this assay:
**A:** 0.0

**Q:** Give the logged outcome of this assay for the following compound: `C=C1C(=O)O[C@@H]2/C=C(/C)C3=CC(=O)[C@@](C)(C[C@H](OC(=O)/C(C)=C\C)[C@@H]12)O3`
**A:** 1.0

====

Hi there, I'd appreciate the recorded growth for every entry that follows.
- System: SK-OV-3 ovarian
- Assay name: NCI-60 one-dose screen, 48 h (100 = growth as untreated, 0 = no growth, -100 = all killed)
- Condition description: 10 µM unless noted
About 83,000 compounds went through this panel and 20% of them were active in at least one assay; those are over-represented in the sample as a whole. Activity calls are given as the source filed them. How the source made its calls: active means growth percent below 10; inactive means the rest.

Please review the following examples before continuing.
| Compound | Value kind | Reported |
| --- | --- | --- |
| Cc1cc(-c2ccc3nc(N)sc3c2)nc2ccc3[nH]ncc3c12 | growth | 31.5% (inactive) |
| CN1CCN(c2nc(-c3cnc4ccccc4n3)cc3ccccc23)CC1 | growth | 92.1% (inactive) |
| Nc1nc(-c2cccc([N+](=O)[O-])c2)c(N=Nc2cccc(Cl)c2)s1 | growth | 42.7% (inactive) |
| CC1COc2c(N3CCN(C)CC3)c(F)cc3c(=O)c(C(=O)N/N=C/c4cc[nH]c4)cn1c23 (centres undefined) | growth | 61.6% (inactive) |

Batch: growth for all items listed.
1. COc1cc2cc(Oc3ccc(NC(=O)c4cccc(C(F)(F)F)c4)cc3)c(C)nc2cc1OCCN(C)C
2. COc1cc2c3c(n(CCCN4CCCC4)c(=O)c2cc1OC)-c1cc2c(cc1C3=O)OCO2
3. NS(=O)(=O)c1ccc(-n2cc(CC=O)nn2)cc1
4. Oc1ccc(CSc2nnc(-c3ccncc3)o2)c2cccnc12
5. Cc1ccc(-n2cc(/C=C/C(=O)c3ccc(S(C)(=O)=O)cc3)c(-c3ccc(S(C)(=O)=O)cc3)n2)cc1
6. CCOC(=O)c1c(NCC(=O)Nc2ccc(Br)cc2)sc2c1CCCC2
7. CN(c1ccc(Cl)cc1)S(=O)(=O)c1ccc(-c2cnc(C3CC3)o2)cc1

**A:**
1: 108% (inactive); 2: 53.7% (inactive); 3: 112% (inactive); 4: 4.05% (active); 5: 105% (inactive); 6: 66.9% (inactive); 7: 84.1% (inactive)

====

- System: MALME-3M melanoma
- Assay name: NCI-60 one-dose screen, 48 h (100 = growth as untreated, 0 = no growth, -100 = all killed)
- Condition description: 10 µM unless noted
Compounds without any hit were thinned out: in the full panel of roughly 83,000, 20% have a hit.
Value kind: growth (%)
One number for each entry, in %.

Answered cases to consult:
| Compound | Reported |
| --- | --- |
| CCC(=O)Nc1cc(Nc2cc(NC3CC3)n3ncc(C#N)c3n2)ccc1C | 30.8 |
| O=S(=O)(NC1CC2CCC1C2)c1ccc2c(c1)C(=NO)c1cc(S(=O)(=O)NC3CC4CCC3C4)ccc1-2 (centres undefined) | -78.9 |

Please state, for each entry, its recorded growth.
1. CS(=O)(=O)c1nccc(-c2c(-c3ccc(F)c(OCCc4ccccc4)c3)nc3sccn23)n1
2. NC(=S)N/N=C(/C=C/c1cn(-c2ccccc2)nc1-c1ccc(Cl)cc1)c1cc2ccccc2oc1=O
3. O=C1/C(=C/c2ccccc2[N+](=O)[O-])Oc2ccc(O)cc21

**A:**
1. 119
2. 71.2
3. 47.8

Batch of 4 compounds: report growth for each.
1. C=CCn1c(SCC(=O)Nc2ccc(OC)cc2)nnc1-c1ccc(Cl)cc1
2. NC(N)=NS(=O)(=O)c1ccc(N=NC2C(=O)NN(c3ccccc3)C2=O)cc1 (centres undefined)
3. O=C(Nc1ccc(F)cc1)c1cc(-c2ccc(F)cc2F)ccc1O
4. O=c1c2ccccc2nc(COc2ccccc2)n1/N=C/C=C/c1ccccc1

**A:**
89.9
101
-10.5
96.9

Please give growth, item by item, for the list that follows.
1. Cn1cc(-c2nn3c(=O)cc(-c4ccccc4)nc3s2)c2cc(F)ccc21
2. COc1ccc(-c2nc3cc(Cl)c(Cl)cc3n2CC(=O)N=Nc2c(O)[nH]c3ccccc23)cc1
3. Cc1cn(-c2cc(NC(=O)c3cncc(C#Cc4cnc5ccc(OCCCS(C)(=O)=O)nn45)c3)cc(C(F)(F)F)c2)cn1
4. COc1ccc(CN2C(=O)/C(=C/c3nc(CO)cs3)SC2=S)cc1
5. CCOC(=O)/C(F)=C/C1CC1CCc1cccc(C(F)(F)F)c1 (centres undefined)

**A:**
1. 22.7
2. 35.9
3. 11.7
4. 93.2
5. 106
